Documented solubility kinetic across a set of molecules
- PROCEDURE_SUMMARY: Aqueous kinetic solubility of the compound in PBS at pH 7.4
- Assay type: physicochemical
- ASSAY_SETUP: read-out: Kinetic_solubility

SMILES_NOTATION: CC(=O)Nc1sc2c(c1-c1nc3ccccc3s1)CCN(C(C)C)C2
solubility kinetic, µM: 20.4

SMILES_NOTATION: CC(=O)Nc1sc2c(c1-c1nc3ccccc3s1)CNC2
solubility kinetic, µM: 51.6

----------
- EXPERIMENTAL_SYSTEM: DNA repair nuclease/redox regulator APEX1 (Homo sapiens, UniProt P27695)
- Sequence (P27695 whole entry): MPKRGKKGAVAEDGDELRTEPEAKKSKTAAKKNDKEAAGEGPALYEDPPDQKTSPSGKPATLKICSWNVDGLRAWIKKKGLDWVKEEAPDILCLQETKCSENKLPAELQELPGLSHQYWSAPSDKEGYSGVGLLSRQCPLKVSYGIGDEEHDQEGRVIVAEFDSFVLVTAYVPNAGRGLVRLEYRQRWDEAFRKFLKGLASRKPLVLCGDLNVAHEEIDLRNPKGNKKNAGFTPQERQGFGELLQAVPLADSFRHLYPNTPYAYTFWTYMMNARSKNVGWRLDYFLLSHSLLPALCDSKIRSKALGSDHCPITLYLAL
- PROCEDURE_SUMMARY: Inhibition of human recombinant APE1 after 15 mins by fluorescence based HTS assay
Documented log10(IC50) across a set of molecules
ENDPOINT: log10(IC50) (log10 of the value in µM)

SMILES_NOTATION: O=C(Nc1sc2c(c1-c1nc3ccccc3s1)CCNC2)C1CC1
log10(IC50): 0.78
--
SMILES_NOTATION: c1ccc2sc(-c3csc4c3CCNC4)nc2c1
log10(IC50): 1.40
--
SMILES_NOTATION: CC(=O)Nc1sc2c(c1-c1nc3ccccc3s1)CNC2
log10(IC50): 0.52
--
SMILES_NOTATION: CC(=O)Nc1sc2c(c1-c1nc3ccccc3o1)CCN(C(C)C)C2
log10(IC50): 1.31
--
SMILES_NOTATION: CCCCC(=O)Nc1sc2c(c1-c1nc3ccccc3s1)CCN(C(C)C)C2
log10(IC50): 0.96
--
SMILES_NOTATION: CC(=O)Nc1sc2c(c1-c1nc3ccccc3s1)CCN(C(C)C)CC2
log10(IC50): 1.25
--
SMILES_NOTATION: CC(C)N1CCc2c(sc(NC(=O)C(F)F)c2-c2nc3ccccc3s2)C1
log10(IC50): 0.72
--
SMILES_NOTATION: O=C(Nc1sc2c(c1-c1nc3ccccc3s1)CCNC2)C(F)(F)F
log10(IC50): 1.25
--
SMILES_NOTATION: CC(=O)Nc1sc2c(c1-c1nc(-c3ccccc3)cs1)CCN(C(C)C)C2
log10(IC50): 0.46
--
SMILES_NOTATION: Cc1noc(Nc2sc3c(c2-c2nc4ccccc4s2)CCNC3)n1
log10(IC50): 1.26
--
SMILES_NOTATION: CC(=O)Nc1sc2c(c1-c1nc3ccccc3s1)CCCN(C(C)C)C2
log10(IC50): 1.11
--
SMILES_NOTATION: C#CCCC(=O)Nc1sc2c(c1-c1nc3ccccc3s1)CCNC2
log10(IC50): 1.08
--
SMILES_NOTATION: CC(=O)Nc1sc2c(c1-c1nc3ccccc3s1)CCN(C(C)C)C2
log10(IC50): 0.30
--
SMILES_NOTATION: COC(=O)Nc1sc2c(c1-c1nc3ccccc3s1)CCNC2
log10(IC50): 1.05
--
SMILES_NOTATION: Cc1cc(C)c2c(N)c3cccc(C)c3nc2n1
log10(IC50): 1.51

----------
- EXPERIMENTAL_SYSTEM: CYP3A4 (Homo sapiens, UniProt P08684)
- Sequence (P08684 whole entry): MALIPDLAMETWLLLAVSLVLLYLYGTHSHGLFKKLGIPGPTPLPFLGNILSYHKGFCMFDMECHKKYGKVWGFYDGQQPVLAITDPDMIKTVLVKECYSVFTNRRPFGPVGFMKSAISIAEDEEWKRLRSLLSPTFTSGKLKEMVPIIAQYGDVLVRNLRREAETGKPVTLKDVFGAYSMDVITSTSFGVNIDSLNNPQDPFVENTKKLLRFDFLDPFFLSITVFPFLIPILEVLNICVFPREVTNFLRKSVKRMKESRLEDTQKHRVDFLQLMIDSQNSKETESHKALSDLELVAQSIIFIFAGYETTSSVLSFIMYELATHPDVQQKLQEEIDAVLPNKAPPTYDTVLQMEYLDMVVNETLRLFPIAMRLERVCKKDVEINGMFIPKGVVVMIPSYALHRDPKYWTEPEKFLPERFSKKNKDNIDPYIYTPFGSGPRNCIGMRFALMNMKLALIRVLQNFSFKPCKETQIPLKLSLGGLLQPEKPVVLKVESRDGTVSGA
- PROCEDURE_SUMMARY: Inhibition of CYP3A4 at 10 uM
- Assay type: ADME
Documented inhibition at 10 µM across a set of molecules
ENDPOINT: inhibition at 10 µM (%)

SMILES_NOTATION: CC(=O)Nc1sc2c(c1-c1nc3ccccc3s1)CNC2
ENDPOINT: inhibition at 10 µM
RESULT_UNIT: %
MEASURED_NUMBER: 50

SMILES_NOTATION: CC(=O)Nc1sc2c(c1-c1nc3ccccc3s1)CCN(C(C)C)C2
ENDPOINT: inhibition at 10 µM
RESULT_UNIT: %
MEASURED_NUMBER: 53

----------
- EXPERIMENTAL_SYSTEM: DNA repair nuclease/redox regulator APEX1 (Homo sapiens)
- PROCEDURE_SUMMARY: Inhibition of human APE1 expressed in Escherichia coli rosetta using fluorescein-dabcyl-containing oligonucleotide as substrate after 5 mins by fluorescence spectrophotometry

SMILES_NOTATION: Cc1cc(C)c2c(N)c3cccc(C)c3nc2n1
IC50: 32 µM

----------
Documented inhibition at 10 µM across a set of compounds
- EXPERIMENTAL_SYSTEM: CYP2D6 (Homo sapiens, UniProt P10635)
- Sequence (P10635 whole entry): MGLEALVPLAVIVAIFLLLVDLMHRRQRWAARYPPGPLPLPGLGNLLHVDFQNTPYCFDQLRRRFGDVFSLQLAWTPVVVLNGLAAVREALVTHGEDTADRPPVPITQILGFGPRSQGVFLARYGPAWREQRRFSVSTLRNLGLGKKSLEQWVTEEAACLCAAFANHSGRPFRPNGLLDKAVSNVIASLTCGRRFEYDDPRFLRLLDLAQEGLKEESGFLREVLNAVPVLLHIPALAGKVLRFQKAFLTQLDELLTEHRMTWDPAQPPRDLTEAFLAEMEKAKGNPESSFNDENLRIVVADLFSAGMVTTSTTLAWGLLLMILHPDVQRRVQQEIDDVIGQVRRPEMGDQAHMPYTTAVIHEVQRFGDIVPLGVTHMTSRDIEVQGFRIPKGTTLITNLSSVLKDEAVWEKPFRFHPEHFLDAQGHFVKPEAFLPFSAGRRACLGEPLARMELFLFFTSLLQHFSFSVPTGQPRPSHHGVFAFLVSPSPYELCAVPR
- PROCEDURE_SUMMARY: Inhibition of CYP2D6 at 10 uM
- Assay type: ADME

SMILES_NOTATION: CC(=O)Nc1sc2c(c1-c1nc3ccccc3s1)CNC2
RESULT_UNIT: %
inhibition at 10 µM: 39
//
SMILES_NOTATION: CC(=O)Nc1sc2c(c1-c1nc3ccccc3s1)CCN(C(C)C)C2
RESULT_UNIT: %
inhibition at 10 µM: 0

----------
- EXPERIMENTAL_SYSTEM: DNA repair nuclease/redox regulator APEX1 (Homo sapiens)
- PROCEDURE_SUMMARY: Inhibition of recombinant APE1 using […]-5'-AP-DNA as substrate incubated for 15 mins prior to substrate addition measured after 5 mins by PAGE analysis
pIC50: −log10 of the molar value.

SMILES_NOTATION: CC(=O)Nc1sc2c(c1-c1nc3ccccc3o1)CCN(C(C)C)C2
pIC50: 4.89
--
SMILES_NOTATION: CC(=O)Nc1sc2c(c1-c1nc3ccccc3s1)CN(C(C)C)C2
pIC50: 5.40
--
SMILES_NOTATION: CC(=O)Nc1sc2c(c1-c1nc(-c3ccccc3)cs1)CCN(C(C)C)C2
pIC50: 5.52
--
SMILES_NOTATION: CC(=O)Nc1sc2c(c1-c1nc3ccccc3s1)CCNC2
pIC50: 5.30
--
SMILES_NOTATION: CC(=O)Nc1sc2c(c1-c1nc3ccccc3s1)CCN(C(C)C)C2
pIC50: 4.92
--
SMILES_NOTATION: CC(=O)Nc1sc2c(c1-c1nc3ccccc3s1)CCN(C)C2
pIC50: 5.30
--
SMILES_NOTATION: CC(=O)Nc1sc2c(c1-c1nc3ccccc3s1)CCN(C(C)C)CC2
pIC50: 4.89
--
SMILES_NOTATION: O=C(Nc1sc2c(c1-c1nc3ccccc3s1)CCNC2)C(F)F
pIC50: 5.40
--
SMILES_NOTATION: CC(=O)Nc1sc2c(c1-c1nc3ccccc3s1)CCCN(C(C)C)C2
pIC50: 4.85

----------
- EXPERIMENTAL_SYSTEM: DNA repair nuclease/redox regulator APEX1 (Homo sapiens)
- PROCEDURE_SUMMARY: Inhibition of APE1 in human HeLa whole cell extract using […]-5'-AP-DNA as substrate assessed as activity remaining at 100 uM incubated for 15 mins prior to substrate addition measured after 5 mins by PAGE analysis relative to control
Documented Activity across a set of compounds

SMILES_NOTATION: CC(=O)Nc1sc2c(c1-c1nc3ccccc3s1)CCCN(C(C)C)C2
EXPERIMENTAL_SYSTEM: DNA repair nuclease/redox regulator APEX1 (Homo sapiens)
Activity (%): 14

SMILES_NOTATION: CC(=O)Nc1sc2c(c1-c1nc3ccccc3s1)CNC2
EXPERIMENTAL_SYSTEM: DNA repair nuclease/redox regulator APEX1 (Homo sapiens)
Activity (%): 0.1

SMILES_NOTATION: CC(=O)Nc1sc2c(c1-c1nc3ccccc3s1)CCN(C(C)C)C2
EXPERIMENTAL_SYSTEM: DNA repair nuclease/redox regulator APEX1 (Homo sapiens)
Activity (%): 0.6

SMILES_NOTATION: CC(=O)Nc1sc2c(c1-c1nc(-c3ccccc3)cs1)CCN(C(C)C)C2
EXPERIMENTAL_SYSTEM: DNA repair nuclease/redox regulator APEX1 (Homo sapiens)
Activity (%): 15

SMILES_NOTATION: CC(=O)Nc1sc2c(c1-c1nc3ccccc3s1)CN(C(C)C)C2
EXPERIMENTAL_SYSTEM: DNA repair nuclease/redox regulator APEX1 (Homo sapiens)
Activity (%): 57

SMILES_NOTATION: CC(=O)Nc1sc2c(c1-c1nc3ccccc3s1)CCN(C(C)C)CC2
EXPERIMENTAL_SYSTEM: DNA repair nuclease/redox regulator APEX1 (Homo sapiens)
Activity (%): 1.1

SMILES_NOTATION: O=C(Nc1sc2c(c1-c1nc3ccccc3s1)CCNC2)C(F)F
EXPERIMENTAL_SYSTEM: DNA repair nuclease/redox regulator APEX1 (Homo sapiens)
Activity (%): 38

SMILES_NOTATION: CC(=O)Nc1sc2c(c1-c1nc3ccccc3o1)CCN(C(C)C)C2
EXPERIMENTAL_SYSTEM: DNA repair nuclease/redox regulator APEX1 (Homo sapiens)
Activity (%): 12

SMILES_NOTATION: CC(=O)Nc1sc2c(c1-c1nc3ccccc3s1)CCNC2
EXPERIMENTAL_SYSTEM: DNA repair nuclease/redox regulator APEX1 (Homo sapiens)
Activity (%): 1.4

SMILES_NOTATION: CC(=O)Nc1sc2c(c1-c1nc3ccccc3s1)CCN(C)C2
EXPERIMENTAL_SYSTEM: DNA repair nuclease/redox regulator APEX1 (Homo sapiens)
Activity (%): 26
